Assign pIC50 to each entry below.
# tgt: purified recombinant human Aggrecanase-2 (Ag2t-Phe628-Strep) (Homo sapiens, UniProt Q9UNA0)
# Construct: the form used is denoted as Ag2t-Phe628-Strep (MW=41,737)
# measurementNotes: In vitro fluorescence screen for Aggrecanase-2 inhibitors
# Format: biochemical
# assayConditions: Table 2; read-out: Agg 2 IC50
One number for each entry, as −log10 of the molar value.

Consider the reported pIC50 for these molecules:
COc1cc(CNC(=O)C(CCC(=O)O)NC(=O)c2ccc(-c3ccc4c(c3)OCO4)cc2)cc(OC)c1OC (stereo not drawn) [Example 17N] :: 7.38
COc1cc(CNC(=O)[C@H](CCC(=O)O)NC(=O)c2ccc(-c3ccc(C)c(F)c3)cc2)cc(OC)c1OC [Example 17R] :: 6.85

Now examine the next entry.
Measured pIC50, CC(C)(Cc1ccccc1)NC(=O)[C@H](CCC(=O)O)NC(=O)c1ccc(-c2ccc(COc3cc(C(C)(C)C)cc(C(C)(C)C)c3)cc2)cc1 [Example 15Z] : 5.22

###

# tgt: purified recombinant human Aggrecanase-2 (Ag2t-Phe628-Strep) (Homo sapiens)
# Construct: the form used is denoted as Ag2t-Phe628-Strep (MW=41,737)
# measurementNotes: In vitro fluorescence screen for Aggrecanase-2 inhibitors
# Format: biochemical
# assayConditions: Table 1; read-out: Agg 2 IC50
Would you kindly list IC50 for each of these molecules?
Give bare numbers, in nM.

Answered examples (6):
COc1ccc(CNC(=O)[C@H](CCC(=O)O)NC(=O)c2ccc(-c3ccccc3)cc2)c(OC)c1 [Example 8Y] :: 520
CCCCCCNC(=O)[C@H](CCC(=O)O)NC(=O)c1ccc(-c2ccccc2)cc1 [Example 8VVV] :: 420
O=C(O)CC[C@H](NC(=O)c1ccc(-c2ccccc2)cc1)C(=O)NCCc1ccccc1 [Example 8FFF] :: 1000
COc1ccc(-c2cccc(CCNC(=O)[C@H](CCC(=O)O)NC(=O)c3ccc(-c4ccccc4)cc3)c2)cc1 [Example 10L] :: 2000
CN(C)c1ccc(CNC(=O)[C@H](CCC(=O)O)NC(=O)c2ccc(-c3ccccc3)cc2)cc1 [Example 8ZZZ] :: 1600
CCCCCNC(=O)[C@H](CCC(=O)O)NC(=O)c1ccc(-c2ccccc2)cc1 [Example 8RRR] :: 680

Below is a list of molecules. For each, state its recorded IC50.
1. COc1cc(CNC(=O)[C@H](CCC(=O)O)NC(=O)c2ccc(-c3ccccc3)cc2)cc(OC)c1 [Example 8CC]
2. Cc1ccc(CNC(=O)[C@H](CCC(=O)O)NC(=O)c2ccc(-c3ccccc3)cc2)cc1C [Example 8DD]
3. O=C(O)CC[C@H](NC(=O)c1ccc(-c2ccccc2)cc1)C(=O)NC1Cc2ccccc2C1 [Example 6A]

### Response
1. 121
2. 930
3. 740

###

# tgt: purified recombinant human Aggrecanase-2 (Ag2t-Phe628-Strep) (Homo sapiens)
# Construct: the form used is denoted as Ag2t-Phe628-Strep (MW=41,737)
# Sequence (Q9UNA0 262-628): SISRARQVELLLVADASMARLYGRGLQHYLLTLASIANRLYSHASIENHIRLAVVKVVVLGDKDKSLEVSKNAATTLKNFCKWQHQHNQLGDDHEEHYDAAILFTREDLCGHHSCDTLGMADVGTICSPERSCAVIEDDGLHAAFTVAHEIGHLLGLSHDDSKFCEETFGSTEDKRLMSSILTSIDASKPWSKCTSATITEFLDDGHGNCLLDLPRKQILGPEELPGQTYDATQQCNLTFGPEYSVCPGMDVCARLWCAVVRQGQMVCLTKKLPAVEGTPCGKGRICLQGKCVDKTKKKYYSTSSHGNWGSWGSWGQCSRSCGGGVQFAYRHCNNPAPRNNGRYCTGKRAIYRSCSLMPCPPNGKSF
# measurementNotes: In vitro fluorescence screen for Aggrecanase-2 inhibitors
# Format: biochemical
# assayConditions: Table 1; read-out: Agg 2 IC50
endpointLabel: IC50 (µM)
Answers are plain numbers, in µM.

Cc1cccc(CNC(=O)[C@H](CCC(=O)O)NC(=O)c2ccc(-c3ccccc3)cc2)c1 :: 1.3
O=C(O)CC[C@H](NC(=O)c1ccc(-c2ccccc2)cc1)C(=O)NCCc1ccc(Br)cc1 :: 2
CC(C)(Cc1ccc(Cl)cc1)NC(=O)[C@H](CCC(=O)O)NC(=O)c1ccc(-c2ccccc2)cc1 :: 0.133
C=Cc1cccc(CNC(=O)[C@H](CCC(=O)O)NC(=O)c2ccc(-c3ccccc3)cc2)c1 [Example 10M] :: 1.1
O=C(O)CC[C@H](NC(=O)c1ccc(-c2ccccc2)cc1)C(=O)NCCc1ccccc1Cl :: 1.9

Hello, I would appreciate it if you could give IC50 for each entry below.
1. CCCCNC(=O)[C@H](CCC(=O)O)NC(=O)c1ccc(-c2ccccc2)cc1
2. CCCCCCCNC(=O)[C@H](CCC(=O)O)NC(=O)c1ccc(-c2ccccc2)cc1
3. COc1ccccc1CNC(=O)[C@H](CCC(=O)O)NC(=O)c1ccc(-c2ccccc2)cc1
4. O=C(O)CC[C@H](NC(=O)c1ccc(-c2ccccc2)cc1)C(=O)NCCc1cccc(Br)c1

### Response
[1.2, 0.3, 0.68, 0.5]

###

Can you tell me pIC50 for the items I'm about to list?
# tgt: purified recombinant human Aggrecanase-2 (Ag2t-Phe628-Strep) (Homo sapiens)
# Construct: the form used is denoted as Ag2t-Phe628-Strep (MW=41,737)
# measurementNotes: In vitro fluorescence screen for Aggrecanase-2 inhibitors
# Type: biochemical
# assayConditions: Table 1; read-out: Agg 2 IC50
One number for each entry, as −log10 of the molar value.

Please review the following examples before continuing.
O=C(O)CC[C@H](NC(=O)c1ccc(-c2ccccc2)cc1)C(=O)NCc1ccc(F)c(C(F)(F)F)c1 :: 5.76
O=C(O)CC[C@H](NC(=O)c1ccc(-c2ccccc2)cc1)C(=O)NCc1ccc(Cl)cc1Cl :: 5.89
O=C(O)CC[C@H](NC(=O)c1ccc(-c2ccccc2)cc1)C(=O)NCCc1ccc(-c2ccccn2)cc1 [Example 10G] :: 5.36

For each of the compounds below, note its pIC50.
1. COc1cccc(CCNC(=O)[C@H](CCC(=O)NO)NC(=O)c2ccc(-c3ccccc3)cc2)c1 [Example 33C]
2. O=C(O)CC[C@H](NC(=O)c1ccc(-c2ccccc2)cc1)C(=O)NCCCCCO
3. O=C(O)CC[C@H](NC(=O)c1ccc(-c2ccccc2)cc1)C(=O)NC1CCCCCCC1
4. O=C(O)CC[C@H](NC(=O)c1ccc(-c2ccccc2)cc1)C(=O)NC1CC1
5. O=C(O)CC[C@H](NC(=O)c1ccc(-c2ccccc2)cc1)C(=O)NCCc1ccc(-c2cccs2)cc1 [Example 10D]
6. O=C(O)CC[C@H](NC(=O)c1ccc(-c2ccccc2)cc1)C(=O)NCCc1cccc(Cl)c1
7. O=C(O)CC[C@H](NC(=O)c1ccc(-c2ccccc2)cc1)C(=O)NCc1ccc2c(c1)OCO2
8. CC(C)(Cc1ccc(F)cc1)NC(=O)[C@H](CCC(=O)O)NC(=O)c1ccc(-c2ccccc2)cc1

### Response
[7.60, 6.08, 6.13, 5.72, 5.49, 5.35, 5.74, 7.36]

Form field, pIC50 with purified recombinant human Aggrecanase-2 (Ag2t-Phe628-Strep) (Homo sapiens), item COc1cc(CNC(=O)[C@H](CCC(=O)NO)NC(=O)c2ccc(-c3ccccc3)cc2)cc(OC)c1OC [Example 33A] : 8.59

###

Record form. Attribute: IC50. Fill in for each entry.
# tgt: recombinant human catalytic domain of MMP-14 (Homo sapiens, UniProt P50281)
# Construct: 177 amino acids corresponding to Tyr89-Gly265 of mature human enzyme
# measurementNotes: In vitro fluorescence assay of MMP-14 activity
# assayConditions: Table 1; unit inferred

Answered cases to consult:
O=C(O)CC[C@H](NC(=O)c1ccc(-c2ccccc2)cc1)C(=O)NCCc1ccccc1Cl :: > 66.6 µM
COc1cccc(CCNC(=O)[C@H](CCC(=O)O)NC(=O)c2ccc(-c3ccccc3)cc2)c1 :: ~25 µM

Please go through the list and note IC50 for each compound.
1. CCCCCCCNC(=O)[C@H](CCC(=O)O)NC(=O)c1ccc(-c2ccccc2)cc1
2. Cc1cccc(CNC(=O)[C@H](CCC(=O)O)NC(=O)c2ccc(-c3ccccc3)cc2)c1

### Response
["> 200 µM", "~22 µM"]

###

A set of compounds tested on MMP-12 (Homo sapiens, UniProt P39900), with measured pIC50:
One number for each entry, as −log10 of the molar value.

CC(C)(Cc1ccc(F)cc1)NC(=O)[C@H](CCC(=O)O)NC(=O)c1ccc(-c2ccc(Cl)s2)cc1 :: 6.20

Items follow; give pIC50 for each.
1. CC(C)(Cc1ccc(Cl)cc1)NC(=O)[C@H](CCC(=O)O)NC(=O)c1ccc(-c2ccc(Cl)cc2)cc1
2. CC(C)(Cc1ccccc1)NC(=O)[C@H](CCC(=O)O)NC(=O)c1ccc(-c2ccc(F)cc2)cc1
3. Cc1ccc(-c2ccc(C(=O)N[C@@H](CCC(=O)O)C(=O)NC(C)(C)Cc3ccc(F)cc3)cc2)s1
4. CC(C)(Cc1ccc(F)cc1)NC(=O)[C@H](CCC(=O)O)NC(=O)c1ccc(-c2ccc(F)c(F)c2)cc1

### Response
[6.22, 6.20, 6.11, 6.44]
